measurement-target: SARS-COV-2 RBD (Severe acute respiratory syndrome coronavirus 2)
assay-explanation: biochemical
Type: binding
pKd: −log10 of the molar value. No end group written: not given here.
Exercise: for every item that follows, state its recorded pKd.

INSERT INTO measurements (macromolecule_sequence, test_readout, measured_value) VALUES
  ('QEQAQTYLDGYNKTYQDLVYKDNLAQWTLNT [peptide2]', 'pKd', '11.39 to 11.45');

Ask | Under SARS-COV-2 RBD (Severe acute respiratory syndrome coronavirus 2): report pKd of EENAKTFLNNFNQEAEDLSYQSSLASWNYNT [peptide4] .
Reply | 11.09 to 11.90
